- ASSAYED_SYSTEM: PHD2 enzyme (residues 181-417) (Homo sapiens (Human), UniProt Q9GZT9)
- Sequence (Q9GZT9 181-417): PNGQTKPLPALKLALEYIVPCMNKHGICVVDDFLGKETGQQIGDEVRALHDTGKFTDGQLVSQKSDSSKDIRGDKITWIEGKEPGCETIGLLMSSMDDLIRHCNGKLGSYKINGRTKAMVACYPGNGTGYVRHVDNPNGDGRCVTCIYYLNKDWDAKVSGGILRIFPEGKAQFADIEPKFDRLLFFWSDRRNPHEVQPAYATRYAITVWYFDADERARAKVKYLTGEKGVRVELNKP
- ASSAY_INFO: Inhibition of PHD enzyme (LC/MS peptide hydroxylation assay)
- Assay type: biochemical
- ASSAY_CONTEXT: PHD2 (residues 181-417) 5 nM, 60 min pre-incubation; -log(IC50), IC50 molar
PHD Inhibition (pIC50) less than 8 is condition met; PHD Inhibition (pIC50) greater than or equal to 8 is condition not met.

>  <COMPOUND>
Cc1cc(-n2ncc(-c3ccc(C#N)cc3)c2O)ncc1C(=O)N1CCN(C)CC1

>  <CLASS_NAME>
condition met

$$$$

# TODO verify PHD Inhibition (pIC50) < 8 strictly for this compound: O=C(NCC1CCOCC1)c1ccc(-n2ncc(-n3ccccc3=O)c2O)nc1 condition met

# TODO verify PHD Inhibition (pIC50) < 8 strictly for this compound: CNCCCNC(=O)c1ccc(-n2ncc(-c3ccnc(OC)c3)c2O)nc1 condition met

# TODO verify PHD Inhibition (pIC50) < 8 strictly for this compound: N#Cc1ccc(-c2cnn(-c3ccc(C(=O)NCCF)cn3)c2O)cc1 condition met

# TODO verify PHD Inhibition (pIC50) < 8 strictly for this compound: N#Cc1ccc(-c2cnn(-c3ccc(C(=O)NCCC4CC4)cn3)c2O)cc1 condition met

# TODO verify PHD Inhibition (pIC50) < 8 strictly for this compound: Cc1cc(C#N)ccc1-c1cnn(-c2ccc(C(=O)NC3CC4(COC4)C3)cn2)c1O condition not met

# TODO verify PHD Inhibition (pIC50) < 8 strictly for this compound: Cc1cc(C#N)ccc1-c1cnn(-c2ccc(C(=O)NCCCOCC3CC3)cn2)c1O condition met

# TODO verify PHD Inhibition (pIC50) < 8 strictly for this compound: Cc1cc(C#N)c(F)cc1-c1cnn(-c2ccc(C(=O)N3CCN(C4CC4)CC3)cn2)c1O condition not met

# TODO verify PHD Inhibition (pIC50) < 8 strictly for this compound: Cc1cc(C#N)ccc1-c1cnn(-c2ccc(C(=O)NCC3CCCCO3)cn2)c1O (centres unmarked) condition not met

----------
Some molecules, each annotated with its measured PHD Inhibition (pIC50).
- ASSAYED_SYSTEM: PHD2 enzyme (residues 181-417) (Homo sapiens (Human), UniProt Q9GZT9)
- ASSAY_INFO: Inhibition of PHD enzyme (LC/MS peptide hydroxylation assay)
- Format: biochemical
- ASSAY_CONTEXT: PHD2 (residues 181-417) 5 nM, 60 min pre-incubation; -log(IC50), IC50 molar

>  <MOLECULE>
COCC1(CNC(=O)c2ccc(-n3ncc(-c4ccc(C#N)cc4)c3O)nc2)CCCC1 [Example 147]

>  <QUANTITY_MEASURED>
PHD Inhibition (pIC50)

>  <MEASURED_RESULT>
7.9

$$$$

Now consider the entry below.
Answer with the recorded PHD Inhibition (pIC50) for the molecule listed here: Cc1cc(C#N)ccc1-c1cnn(-c2ccc(C(=O)N[C@H]3CC[C@H](C)CC3)cn2)c1O [Example 183] 7.9

----------
Some molecules, each annotated with its measured PHD Inhibition (pIC50).
- ASSAYED_SYSTEM: PHD2 enzyme (residues 181-417) (Homo sapiens (Human), UniProt Q9GZT9)
- ASSAY_INFO: Inhibition of PHD enzyme (LC/MS peptide hydroxylation assay)
- Assay type: biochemical
- ASSAY_CONTEXT: PHD2 (residues 181-417) 5 nM, 60 min pre-incubation; -log(IC50), IC50 molar
- Procedure: Example A Inhibition of PHD Enzyme The IC50 values for the PHD2 enzyme (residues 181-417) were determined by mixing increasing amounts of inhibitor with a fixed amount of enzyme (5 nM, final concentration) and Biotin labeled peptide (Biotin-Asp-Leu-Glu-Met-Leu-Ala-Pro-Tyr-Ile-Pro-Met-Asp-Asp-Asp-Phe-Gln-Leu, 1 uM final concentration) and 2-Oxyglutarate (2 uM final concentration) in 50 mM HEPES, 50 mM KCl, 0.5 mM TCEP, 2 uM FeCl2, 0.1 mg/ml BSA, at pH 7.3. […]
Could you respond with only the numeric value?

>  <MOLECULE>
COCCCNC(=O)c1ccc(-n2ncc(-c3ccc(C#N)cc3C)c2O)nc1 [Example 121]

>  <PHD Inhibition (pIC50)>
7.17

$$$$
>  <MOLECULE>
COCC1(NC(=O)c2ccc(-n3ncc(-c4ccc(C#N)cc4)c3O)nc2)CCC1 [Example 199]

>  <PHD Inhibition (pIC50)>
6.89

$$$$
>  <MOLECULE>
Cc1cc(C#N)ccc1-c1cnn(-c2ccc(C(=O)N[C@@H]3CCOC3)cn2)c1O [Example 137]

>  <PHD Inhibition (pIC50)>
7.21

$$$$
>  <MOLECULE>
CN(C(=O)c1ccc(-n2ncc(-c3ccc(C#N)cc3)c2O)nc1)C1CC1 [Example 239]

>  <PHD Inhibition (pIC50)>
7.12

$$$$

Answer with the recorded PHD Inhibition (pIC50) for the molecule listed here: Cc1cc(C#N)ccc1-c1cnn(-c2ccc(C(=O)N3CCN(CC(F)F)CC3)cn2)c1O [Example 311] 8.51

Answer with the recorded PHD Inhibition (pIC50) for the molecule listed here: Cc1cc(-n2ncc(-c3ccc(C#N)cc3)c2O)ncc1C(=O)NC1CC1 [Example 275] 7.03

Answer with the recorded PHD Inhibition (pIC50) for the molecule listed here: CCNC(=O)c1cnc(-n2ncc(-c3ccc(C#N)cc3)c2O)cc1C [Example 274] 7.03

Answer with the recorded PHD Inhibition (pIC50) for the molecule listed here: Cc1cc(C#N)ccc1-c1cnn(-c2ccc(C(=O)NCCCN3CCCC3)cn2)c1O [Example 105] 8
